# maps each entry to its inhibition at 10 µM
- MEASURED ON: ENPP1 (Homo sapiens)
- Sequence (P22413 whole entry): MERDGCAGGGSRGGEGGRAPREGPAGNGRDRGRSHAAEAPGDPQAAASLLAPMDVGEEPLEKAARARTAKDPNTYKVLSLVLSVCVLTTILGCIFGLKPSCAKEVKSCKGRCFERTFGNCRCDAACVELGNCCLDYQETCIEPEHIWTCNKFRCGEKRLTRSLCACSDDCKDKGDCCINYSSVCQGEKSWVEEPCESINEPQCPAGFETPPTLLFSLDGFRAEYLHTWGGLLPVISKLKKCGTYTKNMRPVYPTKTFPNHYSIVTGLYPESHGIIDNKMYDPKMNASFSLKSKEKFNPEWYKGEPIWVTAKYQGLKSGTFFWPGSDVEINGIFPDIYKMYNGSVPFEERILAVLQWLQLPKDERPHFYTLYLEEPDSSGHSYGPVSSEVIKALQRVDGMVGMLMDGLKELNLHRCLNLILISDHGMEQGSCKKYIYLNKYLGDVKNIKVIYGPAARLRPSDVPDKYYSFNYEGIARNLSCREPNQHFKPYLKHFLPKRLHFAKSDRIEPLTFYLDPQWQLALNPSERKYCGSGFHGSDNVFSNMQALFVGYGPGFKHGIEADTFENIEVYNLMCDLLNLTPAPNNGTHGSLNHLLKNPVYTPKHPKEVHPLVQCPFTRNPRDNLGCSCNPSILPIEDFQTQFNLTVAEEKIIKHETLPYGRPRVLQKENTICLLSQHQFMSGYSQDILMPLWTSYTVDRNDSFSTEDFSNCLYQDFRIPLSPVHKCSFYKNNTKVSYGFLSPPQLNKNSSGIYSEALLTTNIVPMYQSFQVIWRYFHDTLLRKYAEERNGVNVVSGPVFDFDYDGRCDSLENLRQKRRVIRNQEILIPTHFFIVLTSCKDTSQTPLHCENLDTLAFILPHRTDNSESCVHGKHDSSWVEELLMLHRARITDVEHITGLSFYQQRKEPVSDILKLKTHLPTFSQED
- ASSAY PROTOCOL: ENPP1 enzyme assay with cGAMP substrate (AMP-Glo)
- Type: biochemical
- Set-up: purchased R&D Systems
- CONDITIONS: 10 µM compound; cGAMP substrate

Sample answers from the record:
> print(dat)
                                item.smiles  result
1     NS(=O)(=O)NCCC1CCN(c2ncnc3ccccc23)CC1   > 75%
2   NS(=O)(=O)NCCC1CCN(c2ncnc3nc[nH]c23)CC1   < 25%
3  COc1cc2ncnc(N3CCC4(CC3)CCN(S(N)(=O)=O)C4)c2cc1OC   > 75%

Please turn your attention to the following entry.
Query the reported inhibition at 10 µM for ENPP1 (Homo sapiens); item: `Cc1cncnc1N1CCC(CCNS(N)(=O)=O)CC1` < 25%
